# TARGET_SYSTEM: recombinant Antigen 1 (recombinant Ab1 target; recombinant integrin αvβ6 antigen)
# Sequence (P06756 31-992, chain 1 of 2): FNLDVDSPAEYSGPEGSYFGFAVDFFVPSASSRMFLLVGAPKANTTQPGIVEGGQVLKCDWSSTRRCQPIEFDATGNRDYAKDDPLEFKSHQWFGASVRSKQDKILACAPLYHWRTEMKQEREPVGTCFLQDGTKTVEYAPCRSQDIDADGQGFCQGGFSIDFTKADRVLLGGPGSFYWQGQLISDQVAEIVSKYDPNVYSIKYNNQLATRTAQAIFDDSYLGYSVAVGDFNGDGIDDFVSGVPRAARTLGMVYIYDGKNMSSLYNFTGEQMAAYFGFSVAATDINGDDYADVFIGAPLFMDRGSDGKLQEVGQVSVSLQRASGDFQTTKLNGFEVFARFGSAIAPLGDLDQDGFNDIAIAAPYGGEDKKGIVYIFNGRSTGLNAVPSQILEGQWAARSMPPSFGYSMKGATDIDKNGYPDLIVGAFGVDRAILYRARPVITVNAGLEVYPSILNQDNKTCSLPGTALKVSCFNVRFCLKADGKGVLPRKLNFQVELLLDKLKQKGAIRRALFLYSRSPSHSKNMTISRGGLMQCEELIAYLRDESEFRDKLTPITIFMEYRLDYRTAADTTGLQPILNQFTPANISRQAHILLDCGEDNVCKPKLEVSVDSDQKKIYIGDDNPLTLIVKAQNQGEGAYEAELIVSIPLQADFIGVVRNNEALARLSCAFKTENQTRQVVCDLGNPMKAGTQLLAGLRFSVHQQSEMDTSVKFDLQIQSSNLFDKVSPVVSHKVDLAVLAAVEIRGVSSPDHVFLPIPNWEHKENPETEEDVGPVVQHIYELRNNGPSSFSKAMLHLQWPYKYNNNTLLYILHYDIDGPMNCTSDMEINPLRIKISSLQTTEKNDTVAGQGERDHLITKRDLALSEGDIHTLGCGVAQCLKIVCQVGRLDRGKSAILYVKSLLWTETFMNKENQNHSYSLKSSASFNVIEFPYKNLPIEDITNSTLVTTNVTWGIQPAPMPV
# Sequence (P18564 22-709, chain 2 of 2, further chain): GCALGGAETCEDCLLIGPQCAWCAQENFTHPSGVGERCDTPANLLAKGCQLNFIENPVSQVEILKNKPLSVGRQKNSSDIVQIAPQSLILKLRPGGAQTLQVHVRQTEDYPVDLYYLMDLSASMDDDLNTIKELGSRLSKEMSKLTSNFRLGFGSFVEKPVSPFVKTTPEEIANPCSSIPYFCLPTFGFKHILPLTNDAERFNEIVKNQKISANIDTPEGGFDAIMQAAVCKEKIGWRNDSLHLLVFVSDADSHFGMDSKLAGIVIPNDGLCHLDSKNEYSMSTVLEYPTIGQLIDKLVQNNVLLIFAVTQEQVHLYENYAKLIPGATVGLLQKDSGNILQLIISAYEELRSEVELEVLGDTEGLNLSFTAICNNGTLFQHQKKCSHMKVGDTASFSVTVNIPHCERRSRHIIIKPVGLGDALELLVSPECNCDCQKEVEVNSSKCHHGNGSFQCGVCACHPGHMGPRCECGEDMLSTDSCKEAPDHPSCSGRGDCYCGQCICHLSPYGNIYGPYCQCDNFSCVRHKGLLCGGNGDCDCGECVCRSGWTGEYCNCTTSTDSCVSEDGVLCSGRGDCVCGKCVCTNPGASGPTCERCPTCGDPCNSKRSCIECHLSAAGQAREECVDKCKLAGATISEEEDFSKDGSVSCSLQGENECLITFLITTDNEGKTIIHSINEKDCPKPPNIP
# ASSAY_REMARKS: saturation binding ELISA
REPORTED_PROPERTY: EC50 fold change from Ab1 (fold)
Kindly answer with a numeric value in fold, unit omitted.

// query Find the recorded EC50 fold change from Ab1 belonging to Vel-IPV-Ab1 Coil 103 (antibody, part only; not given: Ab1 heavy and light chains, part only) heavy, part: QGASTSVDELQAEVDQLEDENYAGKTKVAQLRKKVEKLGSIPVSLRSG light, part: QGASTTVAQLEEKVKTLRAENYEYKSEVQRLEEQVAQLGSIPVSLRSG and report it.
// result 260

// query Another binder to check: Vel-IPV-Ab1 Coil 126 (antibody, part only; not given: Ab1 heavy and light chains, part only) heavy, part: QGASTSVDELQAEVDQLEDENYAYKTKVAQLRKKVEKLGSIPVSLRSG light, part: QGASTTVAQLEEKVKTLRAENYESKSEVQRLEEQVAQLGSIPVSLRSG
// result 444

// query Another binder to check: Vel-IPV-Ab1 Coil 115 (antibody, part only; not given: Ab1 heavy and light chains, part only) heavy, part: QGASTSVDELQAEVDQLEDENYAWKTKVAQLRKKVEKLGSIPVSLRSG light, part: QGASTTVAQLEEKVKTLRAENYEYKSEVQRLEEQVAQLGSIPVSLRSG
// result 633

// query Another binder to check: Vel-IPV-Ab1 Coil 106 (antibody, part only; not given: Ab1 heavy and light chains, part only) heavy, part: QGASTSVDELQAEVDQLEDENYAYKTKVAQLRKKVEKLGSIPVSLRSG light, part: QGASTTVAQLEEKVKTLRAENYEFKSEVQRLEEQVAQLGSIPVSLRSG
// result 657

// query Another binder to check: Vel-IPV-Ab1 Coil 145 (antibody, part only; not given: Ab1 heavy and light chains, part only) heavy, part: QGASTSVDELQAEVDQLEDENYALKTKIAQLRKKVEKLGSIPVSLRSG light, part: QGASTTVAQLEEKVKTLRAENYEAKSEVQRLEEQVAQLGSIPVSLRSG
// result 290

// query Another binder to check: Vel-IPV-Ab1 Coil 124 (antibody, part only; not given: Ab1 heavy and light chains, part only) heavy, part: QGASTSVDELQAEVDQLEDENYASKTKVAQLRKKVEKLGSIPVSLRSG light, part: QGASTTVAQLEEKVKTLRAENYEWKSEVQRLEEQVAQLGSIPVSLRSG
// result 517

// query Another binder to check: Vel-IPV-Ab1 Coil 138 (antibody, part only; not given: Ab1 heavy and light chains, part only) heavy, part: QGASTSVDELQAEVDQLEDENYALKTKLAQLRKKVEKLGSIPVSLRSG light, part: QGASTTVAQLEEKVKTLRAENYELKSEIQRLEEQVAQLGSIPVSLRSG
// result 532

// query Another binder to check: Vel-IPV-Ab1 Coil 107 (antibody, part only; not given: Ab1 heavy and light chains, part only) heavy, part: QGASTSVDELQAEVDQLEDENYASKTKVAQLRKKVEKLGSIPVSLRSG light, part: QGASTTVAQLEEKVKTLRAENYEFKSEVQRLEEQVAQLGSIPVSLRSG
// result 458

// query Another binder to check: Vel-IPV-Ab1 Coil 151 (antibody, part only; not given: Ab1 heavy and light chains, part only) heavy, part: QGASTSVDELQAEVDQLEDENYALKTKLAQLRKKVEKLGSIPVSLRSG light, part: QGASTTVAQLEEKVKTLRAENYELKSELQRLEEQVAQLGSIPVSLRSG
// result 827
